The entries below are paired with their reported emission maximum.
assay: solvent given as SMILES; settings: in CO

1) CC1=C(Cc2ccccc2)C(C)=[N+]2C1=C(C)c1c(C)c(-c3csc(N4CCOCC4)n3)c(C)n1[B-]2(F)F :: 539 nm

response.value for `CCCN1/C(=C/C=C(/C=C/C2=[N+](CCC)c3ccccc3C2(C)C)c2ccc3ccccc3n2)C(C)(C)c2ccccc21` (field: emission maximum) = 652 nm

Measured emission maximum of `CCC1=C(C)C(=O)n2c1cc1[nH]c(C(=O)OC(C)(C)C)c(C)c1c2=O` : 505 nm

Please fill in: emission maximum reported for `CC1=C(c2cccs2)C(C)=[N+]2C1=C(c1ccc(OS(=O)(=O)c3ccc([N+](=O)[O-])cc3[N+](=O)[O-])cc1)c1c(C)c(-c3cccs3)c(C)n1[B-]2(F)F` = 609 nm

Briefly, emission maximum measured for `COc1ccc2cc3c(C)cc(=O)oc3cc2c1` : 469 nm

// emission maximum lookup, molecule = `CCCCCCCCN1c2ccc(C#Cc3ccc(OC)cc3)cc2Sc2cc(C=O)ccc21` , result: 464 nm

Looking up `O=C(O)CCCCCn1/c(=C/C=C/C2=[N+](CCCCCC(=O)O)c3cccc4cccc2c34)c2cccc3cccc1c32` , I see its emission maximum listed as 773 nm

The recorded emission maximum for entry `CNc1ncc2nc(C(=O)OC)n(Cc3ccccc3)c2n1` equals 429 nm

###

experiment: solvent given as SMILES; conditions: in ClCCl
Response key: T means emission maximum >= 500 nm; F means emission maximum < 500 nm.

Example results:
1. N#CC(C#N)=Cc1ccc(-c2cccc(-c3nc4ccccc4s3)c2O)o1 :: T
2. Clc1nnc(Oc2ccc(N(c3ccc(Br)cc3)c3ccc(Br)cc3)cc2)nn1 :: T
3. CC(C)(C)c1ccc2c(c1)c1cc(C(C)(C)C)ccc1n2-c1ccc(C#Cc2ccc(C#Cc3ccc(-n4c5ccc(C(C)(C)C)cc5c5cc(C(C)(C)C)ccc54)cc3)cc2)cc1 :: F

*Q* Textbook exercise: given the entry `CC(C)c1cccc(C(C)C)c1N1C(=O)c2cccc3c(Oc4ccc(Cl)cc4)ccc(c23)C1=O` , state whether its emission maximum is greater than or equal to 500 nm.
*A* F

*Q* Determine whether this compound has emission maximum no lower than 500 nm: `COc1ccc2c(c1)CCc1c-2nc(N)c(C#N)c1-c1ccc(Br)cc1`
*A* F

*Q* Does the compound `CN(C)c1ccc(/C=C2\CCCC2=O)cc1` have recorded emission maximum that is 500 nm or more?
*A* F

*Q* Given the entry `CCC(CC)COC1=CC2=C3c4cc(OCC(CC)CC)c(-c5ccccc5)n4[B-](F)(F)[n+]4c3n(c3cc(C(C)(C)C)ccc34)[B-](F)(F)[N+]2=C1c1ccccc1` , answer whether its emission maximum meets or surpasses 500 nm.
*A* T

###

experiment: solvent given as SMILES; details: in C1CCOC1
// label = MET if emission maximum is not less than 500 nm, otherwise NOT MET

Take a look at these entries with their results.
1) Cc1ccc(C2=C3C=CC(C#Cc4ccccc4)=[N+]3[B-](F)(F)n3c(C#Cc4ccccc4)ccc32)cc1 :: MET
2) N#Cc1ccc(C2=CC3=c4cc(-c5ccc(C#N)cc5)c5nc(C(F)(F)C(F)(F)C(F)(F)F)nc6c(-c7ccc(C#N)cc7)cc(c4c65)C4=CC(c5ccc(C#N)cc5)=C5N=C(C(F)(F)C(F)(F)C(F)(F)F)N=C2C5C43)cc1 (stereo not given) :: MET
3) c1ccc2nc3cccc(-c4ccc(-n5c6ccccc6c6ccccc65)cc4)c3cc2c1 :: NOT MET
4) COC(=O)c1ccc2ccc3cccc4ccc1c2c34 :: NOT MET
5) Cc1cc(C)n2c1C=C1c3ccccc3C(c3c[nH]c4ccccc34)=[N+]1[B-]2(F)F :: MET
6) Cc1ccc(C2=C3C=C4C(=[N+]3[B-](F)(F)n3c2cc2c3-c3ccccc3C23c2ccccc2-c2ccccc23)c2ccccc2C42c3ccccc3-c3ccccc32)cc1 :: MET
7) CN(C)c1ccc(/C=C/C(=O)O)cc1 :: NOT MET
8) C1=C(c2ccccc2)C(c2ccccc2)=CC1c1ccccc1 :: NOT MET

*Q* Could you please find out whether `COc1ccccc1C1=C2C(C)=CC(C)=[N+]2[B-](F)(F)n2c(C)cc(C)c21` has emission maximum that meets 500 nm or exceeds it?
*A* MET

*Q* Entry `CCOC(=O)C1=CNC=C(C(=O)OCC)C1c1ccccc1` : is its emission maximum no less than 500 nm?
*A* NOT MET
